Tested system: CYP2B6 (Homo sapiens)
Sequence (P20813 whole entry): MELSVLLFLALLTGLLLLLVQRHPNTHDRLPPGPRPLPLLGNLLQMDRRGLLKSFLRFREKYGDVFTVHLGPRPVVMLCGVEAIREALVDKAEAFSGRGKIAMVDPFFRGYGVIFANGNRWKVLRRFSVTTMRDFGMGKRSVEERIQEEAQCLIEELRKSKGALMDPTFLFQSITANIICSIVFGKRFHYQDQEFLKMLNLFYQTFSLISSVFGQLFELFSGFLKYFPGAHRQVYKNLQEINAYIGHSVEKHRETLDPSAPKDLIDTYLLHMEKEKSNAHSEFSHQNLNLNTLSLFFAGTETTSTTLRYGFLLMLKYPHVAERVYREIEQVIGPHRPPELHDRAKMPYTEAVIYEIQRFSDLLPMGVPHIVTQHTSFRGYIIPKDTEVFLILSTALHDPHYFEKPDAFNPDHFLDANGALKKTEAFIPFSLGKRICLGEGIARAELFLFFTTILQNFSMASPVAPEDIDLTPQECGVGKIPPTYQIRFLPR
Test: in vitro
Condition label: both, liver microsomes, pH 7.4, probe bupropion
Readout type: inhibition at 15 min, 10 µM

Report inhibition at 15 min, 10 µM on CYP2B6 (Homo sapiens) for this entry: S=C(N/N=C1/CCCc2cccnc21)N1CCN(c2ccccn2)CC1
< 50%
